Tested on: UACC-62 melanoma
experiment_description: NCI tumour cell line growth inhibition, 48 h
Where a SMILES comes first, the peptide text is derived from it. [ ]: non-standard residue; d: D form. ξ: configuration not given here. ξLac(3-iPr) = CC(C)CC(O)C(=O)O; NMeV = CN[CH](C(=O)O)C(C)C; NMeA = CN[CH](C)C(=O)O; βAla = NCCC(=O)O
assay_readout: TGI

CCC(=O)Nc1ccc(C)c(-c2ccc(C(=O)NCC3CC3)cc2)c1	> 25 µM
CCC(C)C1NC(=O)C2CCCN2C(=O)C(CC(C)C)OC(=O)CCNC(=O)C(C)N(C)C(=O)C(C(C)C)N(C)C1=O (centres undefined) (cyclo([ξLac(3-iPr)]PI[NMeV][NMeA][βAla]); configuration not given here)	5.06 µM
COC(=O)C1Cc2ccc3c(c2C1=O)CCCC3 (centres undefined)	> 100 µM
C[N+](C)(C)c1cc2c(nn1)Nc1ccccc1S2	36.9 µM
COc1cc(C2=N/C(=C/c3cccs3)C(=O)O2)cc(OC)c1OC	> 100 µM

Look up TGI for this compound: Cc1ccc(C(=O)/C=C/c2cccc([N+](=O)[O-])c2)cc1
> 100 µM

# repeat for CCc1ccc(C(=Nc2ccc(N(C)C(=O)CN3CCN(C)CC3)cc2)c2c(O)[nH]c3ccc(C(=O)OC)cc23)cc1
3.2 µM

Same for CCOC(OCC)N1C(=O)C2(C(OCC)OCC)CC3C(OC(=O)N3N)c3cccc1c32 (centres undefined)
> 100 µM

Can you check CCCCCCCCCCCCCCCCCCOCC(CCP(=O)(CP(=O)(O)O)Oc1ccccc1)OCCCCCCCCCCCCCCCCCC (centres undefined) next?
> 100 µM
